tested on: CCRF-CEM; experiment: NCI tumour cell line growth inhibition, 48 h
Activity calls are given as the source filed them. Cut-off read from the data, not from the text of the source: active = GI50 up to about 1.1 µM and inactive = higher.
Listed here: items and their measured GI50.

Worked set:
compound="C[C@@H](c1ccccc1)N(CC#N)C1CCC[C@H]1O (some centres not stated)" result="> 100 µM (inactive)"
compound=CCO/C=N/C1=C(C#N)SC2=N/C(=C\c3ccccc3)C(=O)N21 result="60.5 µM (inactive)"
compound="CCCCCCCCCCCC1=C(O)C(=O)C=C(O)C1=O [EMBELIN]" result="4.27 µM (inactive)"
compound="CC(C)Cn1cnc2c(NCC(C)O)nc3ccccc3c21 (configuration not stated)" result="> 100 µM (inactive)"
compound="COC(OC)c1cccc2c1C1(O)CCC3(CC21)OCCCCO3 (configuration not stated)" result="> 100 µM (inactive)"

Request: GI50, test system CCRF-CEM, entry c1ccc2c(c1)cc1c3[nH]c4ccccc4c3ccn21 8.32 µM (inactive)

----------
test system: Hs-578T; assay: NCI tumour cell line growth inhibition, 48 h
Activity calls are given as the source filed them. Cut-off read from the data, not from the text of the source: active = GI50 up to about 1.1 µM and inactive = higher. Where a SMILES comes first, the peptide text is derived from it. [ ]: non-standard residue; d: D form. The star is where a group is joined. ξ: configuration not given here. ξD = NC(CC(=O)O)C(=O)O; Ac3c = NC1(C(=O)O)CC1; Boc = CC(C)(C)OC(=O)*; OBn = c1ccc(CO*)cc1
Pick one: active, inactive

compound="COC(=O)C1(NC(=O)C(CC(=O)OCc2ccccc2)NC(=O)OC(C)(C)C)CC1 (stereo not given) (Boc-[ξD](OBn)-[Ac3c]-OMe)" assigned_category=inactive
compound=O=C(N/N=C/C=C/c1ccc([N+](=O)[O-])o1)c1ccc(Br)s1 assigned_category=inactive
compound="C=C[C@@]1(C)CC[C@@H]2[C@@]3(C1)O[C@H]3CC1[C@](C)(C(=O)OC)CCC[C@@]12C (stereo not given in full)" assigned_category=inactive
compound=O=C(O)c1ccc(C(=O)O)c(C(=O)Nc2ccc3c(c2)C(=O)c2ccccc2-3)c1 assigned_category=inactive
compound=COc1ccc(-c2cc(=O)c3c(OC)c(OC)c(OC)cc3o2)cc1 assigned_category=inactive

GET /call?item= Oc1ccccc1-c1nn2c(CCCCCCCCc3nnc4sc(-c5ccccc5O)nn34)nnc2s1 returns the recorded outcome of this test. inactive

Queued: O=c1c2ccccc2nc2n1CCc1c-2[nH]c2ccc(Br)cc12 inactive

Queued: CN(C)c1c(C2CC(O)C(CO)O2)c(=O)c1=O (stereo not given) inactive

Queued: CCNc1ccc2c(c1)Cc1ccccc1-2 inactive

Queued: O=C1N(c2ccccc2)C2(c3ccccc3)CC3CCCC13S2 (stereo not given) inactive

Queued: c1cnn(C23C4C5C6C4C2C6C53)c1 (stereo not given) inactive

Queued: c1ccc(-c2sc(-c3cccs3)cc2Cc2cccs2)cc1 inactive

Queued: CC(=O)OCC(OC(C)=O)C1C[C@H]2O[C@@H]3[C@H](C[C@H]2O1)O[C@@]1(C[C@@H]3C)C[C@H](C)[C@@H]2O[C@]3(C[C@@H]2O1)C[C@H]1O[C@H]2[C@H](C)[C@H]4OC(=O)C[C@H]5CC[C@@H]6OC7[C@H]8O[C@]9(CC[C@H]%10CC(=O)[C@H](CC[C@H]%11C[C@@H](C)C(=O)C(C[C@@H]4O[C@H]2C[C@H]1O3)O%11)O%10)CC8O[C@@H]7[C@@H](O9)[C@H]6O5 (stereo not given in full) active

Queued: COc1cc2c(cc1OC)OC(c1c(OC)ccc(OC)c1O)CC2 (stereo not given) inactive

Queued: CCC(C)C(C(=O)N/N=C1/SCC(=O)N1c1ccccc1)C(=O)N/N=C1/SCC(=O)N1c1ccccc1 (stereo not given) inactive
